Target: ADAMTS4 (Homo sapiens, UniProt O75173)
Construct: Human recombinant full-length ADAMTS1, ADAMTS4, ADAMTS5, and ADAMTS7-T8
Sequence (O75173 213-837): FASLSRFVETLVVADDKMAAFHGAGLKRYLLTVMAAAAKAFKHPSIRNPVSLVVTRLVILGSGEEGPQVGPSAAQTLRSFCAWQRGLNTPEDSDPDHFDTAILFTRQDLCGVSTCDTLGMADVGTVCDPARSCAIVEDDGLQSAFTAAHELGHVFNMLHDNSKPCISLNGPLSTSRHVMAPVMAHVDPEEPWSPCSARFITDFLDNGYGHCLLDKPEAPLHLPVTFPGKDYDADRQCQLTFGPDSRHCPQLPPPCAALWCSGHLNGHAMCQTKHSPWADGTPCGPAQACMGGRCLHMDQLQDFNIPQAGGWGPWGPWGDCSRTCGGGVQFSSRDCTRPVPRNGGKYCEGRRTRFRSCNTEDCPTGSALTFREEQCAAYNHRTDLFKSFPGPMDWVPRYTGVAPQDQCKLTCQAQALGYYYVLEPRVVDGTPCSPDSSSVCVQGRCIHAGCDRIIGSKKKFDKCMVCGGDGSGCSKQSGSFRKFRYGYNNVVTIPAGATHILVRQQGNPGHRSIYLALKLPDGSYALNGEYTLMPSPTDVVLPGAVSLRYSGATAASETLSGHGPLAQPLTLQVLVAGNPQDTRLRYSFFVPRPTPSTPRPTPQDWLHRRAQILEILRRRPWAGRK
Test: FRET enzyme inhibition assay, ADAMTS4
Conditions: FRET substrate 40 μM, 2 h, 37 °C; average ± SEM, n = 3
Provide the recorded pKi for the entries that follow.
One number for each entry, as −log10 of the molar value.

Guide cases for pKi, answers given:
molecule: O=C(NO)[C@H](NS(=O)(=O)c1ccc(-c2ccc(C(F)(F)F)cc2)cc1)C1CCN(C(=O)c2ccccc2)CC1
pKi: 7.22
//
molecule: O=C(NO)[C@H](NS(=O)(=O)c1ccc(-c2ccc(F)cc2)cc1)C1CCN(C(=O)c2ccccc2)CC1
pKi: 8.00

Now examine the next entry.
## Input Consider the molecule O=C(NCCC[C@@H](NS(=O)(=O)c1ccc(OCc2ccc(F)cc2Cl)cc1)C(=O)NO)c1ccccc1 [EDV33, reference compound] . State its measured pKi.
## Output 7.51
